# Assay overview: Permeability in a porcine brain endothelial cell model of the blood-brain barrier
# Format: in vitro ADME
# Experimental conditions: pig, pH 7.4, Diastereoisomer A (upfield shift in 31P NMR); luminal (apical) to basal, PBECs/As; read-out: Papp Diastereoisomer A
Measure: Papp A→B at 60 min (×10⁻⁶ cm/s)

CC(=O)SCCNC(=O)CCNC(=O)[C@@H]1OP(=O)(OCOC(=O)c2scnc2C)OCC1(C)C (some centres unmarked); 3.17
CC(=O)SCCNC(=O)CCNC(=O)[C@@H]1OP(=O)(OCOC(=O)c2cc(C)nn2C)OCC1(C)C (some centres unmarked); 3.1

====

# Assay overview: Stability of compounds in human hepatocytes
# Assay type: in vitro ADME
# Experimental conditions: cryopreserved human hepatocytes in suspension, Diastereoisomer B, 37° C., 0-240 min, read-out: t1/2 (h) Human Hepatocytes Diastereoisomer B (converted)
Measure: half-life at 5 μM (h)

I: CC(=O)SCCNC(=O)CCNC(=O)[C@@H]1OP(=O)(OCOC(=O)c2cc(C)nn2C)OCC1(C)C (stereo partly drawn) [R1007]
II: CC(=O)SCCNC(=O)CCNC(=O)[C@@H]1OP(=O)(OCOC(=O)c2scnc2C)OCC1(C)C (stereo partly drawn) [R1006]
Query: Lowest half-life at 5 μM? choose I or II Please indicate the selected item by its label.
Response: I

====

# Assay overview: Permeability in a porcine brain endothelial cell model of the blood-brain barrier
# Assay type: in vitro ADME
# Experimental conditions: pig, pH 7.4, Diastereoisomer B; luminal (apical) to basal, PBECs/As; read-out: Papp Diastereoisomer B
Measure: Papp A→B at 60 min (nm/s)

CC(=O)SCCNC(=O)CCNC(=O)[C@@H]1OP(=O)(OCOC(=O)c2scnc2C)OCC1(C)C (some centres unmarked); 31.8
CC(=O)SCCNC(=O)CCNC(=O)[C@@H]1OP(=O)(OCOC(=O)c2cc(C)nn2C)OCC1(C)C (some centres unmarked); 36

====

The entries below come with measured fold induction at 1 µM values attached.
# Tested on: PANK2−/− IMR32 cells
# Assay overview: Coenzyme A assay in PANK2 silenced cells (LC-MS quantification of free CoA)
# Type: cell-based, human
# Experimental conditions: Homo sapiens, IMR-32; compound concentration 1 uM; fold increase in CoA levels relative to controls; treated twice, 24 h + 24 h
Output: the number by itself.

Below are worked cases with known answers.
CC(=O)SCCNC(=O)CCNC(=O)[C@@H]1OP(=O)(OCOC(=O)C(C)C)OCC1(C)C (stereo partly drawn) [R1024]; 1.4
COc1cccc(C(=O)OCOP2(=O)OCC(C)(C)[C@H](C(=O)NCCC(=O)NCCSC(C)=O)O2)c1 (stereo partly drawn) [R1038]; 26.2
CC(=O)SCCNC(=O)CCNC(=O)[C@@H]1OP(=O)(OCOC(=O)c2cc(C(C)(C)C)nn2C)OCC1(C)C (stereo partly drawn) [R1010]; 200
COc1ccc(C(=O)OCOP2(=O)OCC(C)(C)[C@H](C(=O)NCCC(=O)NCCSC(C)=O)O2)cc1 (stereo partly drawn) [R1035]; 18
CC(=O)SCCNC(=O)CCNC(=O)[C@@H]1OP(=O)(OCOC(=O)c2ccc(C)cc2)OCC1(C)C (stereo partly drawn) [R1036]; 52.2
CC(=O)SCCNC(=O)CCNC(=O)[C@@H]1OP(=O)(OCOC(=O)c2cccc(Cl)c2)OCC1(C)C (stereo partly drawn) [R1034]; 29.6
CC(=O)SCCNC(=O)CCNC(=O)[C@@H]1O[P@@](=O)(OCOC(=O)c2cc(C(C)(C)C)n[nH]2)OCC1(C)C [R1016]; 323
CC(=O)SCCNC(=O)CCNC(=O)[C@@H]1OP(=O)(OCOC(=O)c2cccc(C)c2)OCC1(C)C (stereo partly drawn) [R1039]; 27.4
CC(=O)SCCNC(=O)CCNC(=O)[C@@H]1O[P@](=O)(OCOC(=O)c2cc(C(C)(C)C)n[nH]2)OCC1(C)C [R1019]; 28.8
CC(=O)SCCNC(=O)CCNC(=O)[C@@H]1OP(=O)(OCOC(=O)c2ccccc2)OCC1(C)C (stereo partly drawn) [R1009]; 69.5

Query: In one line, give reported fold induction at 1 µM of the entry CC(=O)SCCNC(=O)CCNC(=O)[C@@H]1O[P@@](=O)(OCOC(=O)c2cc(C(C)(C)C)nn2C)OCC1(C)C [R1045] .
Response: 2.3

Query: Tell us which fold induction at 1 µM value is on record for CC(=O)SCCNC(=O)CCNC(=O)[C@@H]1O[P@@](=O)(OCOC(=O)OC(C)C)OCC1(C)C [R1017]
Response: 18.4

Query: Name the recorded fold induction at 1 µM of the item CC(=O)SCCNC(=O)CCNC(=O)[C@@H]1OP(=O)(OCOC(=O)c2ccc(C(F)(F)F)cc2)OCC1(C)C (stereo partly drawn) [R1037] in your answer.
Response: 30.1

Query: Consider the molecule CC(=O)SCCNC(=O)CCNC(=O)[C@@H]1OP(=O)(OCOC(=O)c2ccc(Cl)cc2)OCC1(C)C (stereo partly drawn) [R1033] and give its recorded fold induction at 1 µM.
Response: 25.8

Query: Could you please provide reported fold induction at 1 µM for CC(=O)SCCNC(=O)CCNC(=O)[C@@H]1O[P@](=O)(OCOC(=O)c2cc(C(C)(C)C)nn2C)OCC1(C)C [R1044] ? Thanks!
Response: 20.3
